Assay details: Quantitative High-Throughput drug screen in 47 multiple myeloma cell lines against the NCATS MIPE library collection: MMM1_PLB cell viability assay (AID 1918976); further: nearly all actives have a fitted effect of over 35% in size
Conditions: MMM1 myeloma cells viability, CellTiter-Glo, 48 h; series mostly up to 45.8 µM
Results filed as inconclusive are left out. Active and inactive are the calls of the source. The call rests on the fitted dose curve; in most records, active means well fitted cell-killing curve with a large enough effect; inconclusive means small, poorly fitted or top-dose-only effect, or effect the other way; inactive means no such curve, though single readings can be large or run the other way.
Your reply should match one of these outcome classes. active, inactive

# Compound, Class
measured = [
    ("Cc1cc(O)c2c(c1)C(=O)c1cc(O)cc(O)c1C2=O", "active"),
    ("COc1cc2c(cc1OC)C1CC(=O)C(CC(C)C)CN1CC2 (stereo not drawn)", "active"),
    ("COc1cc(Nc2c(C#N)cnc3cc(OCCCN4CCN(C)CC4)c(OC)cc23)c(Cl)cc1Cl", "active"),
    ("COC(=O)C1=C(C)NC(C)=C(C(=O)OC(C)C)C1c1cccc2nonc12 (stereo not drawn)", "active"),
    ("Cc1cccc(-c2[nH]ncc2-c2ccc3ncccc3n2)n1", "inactive"),
    ("CC(=O)N1CCN(c2ccc(OC[C@H]3CO[C@](Cn4ccnc4)(c4ccc(Cl)cc4Cl)O3)cc2)CC1", "active"),
    ("CNC[C@H](O)c1ccc(O)c(O)c1", "active"),
    ("Cc1c(C(=O)NN2CCCCC2)nn(-c2ccc(Cl)cc2Cl)c1-c1ccc(Cl)cc1", "active"),
    ("COc1c(O)cc2c(c1O)[C@@H]1O[C@H](CO)[C@@H](O)[C@H](O)[C@H]1OC2=O", "active"),
    ("CCN(CC)C(=S)SSC(=S)N(CC)CC", "active"),
]

Hi, sorry to bother you, what did the test record for CC(=O)O[C@H]1C(=O)[C@@]2(C)C([C@H](OC(=O)c3ccccc3)[C@]3(O)C[C@H](OC(=O)[C@H](O)[C@@H](NC(=O)c4ccccc4)c4ccccc4)C(C)=C1C3(C)C)[C@]1(OC(C)=O)CO[C@@H]1C[C@@H]2O (stereo partly drawn) ?
active

Same lookup for Cc1nc(-c2ccc(OCC(C)C)c(C#N)c2)sc1C(=O)O , please.
active

Same lookup for Cc1cc(Cl)ccc1OCCCC(=O)NO , please.
active

Same lookup for CC[C@]1(O)C[C@H]2CN(CCc3c([nH]c4ccccc34)[C@@](C(=O)OC)(c3cc4c(cc3OC)N(C=O)[C@H]3[C@@](O)(C(=O)OC)[C@H](OC(C)=O)[C@]5(CC)C=CCN6CC[C@]43[C@@H]65)C2)C1 , please.
active

Same lookup for Cc1cccc(C)c1OCC(=O)N[C@@H](Cc1ccccc1)[C@@H](O)C[C@H](Cc1ccccc1)NC(=O)[C@H](C(C)C)N1CCCNC1=O , please.
active

Same lookup for COC(=O)N[C@H](C(=O)N[C@@H](Cc1ccccc1)[C@@H](O)CN(Cc1ccc(-c2ccccn2)cc1)NC(=O)[C@@H](NC(=O)OC)C(C)(C)C)C(C)(C)C , please.
active

Same lookup for CC(C)C[C@H](NC(=O)[C@H](Cc1ccccc1)NC(=O)c1cnccn1)B(O)O , please.
active

Same lookup for O=C1CCc2ccc(OCCCCN3CCN(c4cccc(Cl)c4Cl)CC3)cc2N1 , please.
active
